Target: hOCT2 (Homo sapiens)
Sequence (O15244 1-555): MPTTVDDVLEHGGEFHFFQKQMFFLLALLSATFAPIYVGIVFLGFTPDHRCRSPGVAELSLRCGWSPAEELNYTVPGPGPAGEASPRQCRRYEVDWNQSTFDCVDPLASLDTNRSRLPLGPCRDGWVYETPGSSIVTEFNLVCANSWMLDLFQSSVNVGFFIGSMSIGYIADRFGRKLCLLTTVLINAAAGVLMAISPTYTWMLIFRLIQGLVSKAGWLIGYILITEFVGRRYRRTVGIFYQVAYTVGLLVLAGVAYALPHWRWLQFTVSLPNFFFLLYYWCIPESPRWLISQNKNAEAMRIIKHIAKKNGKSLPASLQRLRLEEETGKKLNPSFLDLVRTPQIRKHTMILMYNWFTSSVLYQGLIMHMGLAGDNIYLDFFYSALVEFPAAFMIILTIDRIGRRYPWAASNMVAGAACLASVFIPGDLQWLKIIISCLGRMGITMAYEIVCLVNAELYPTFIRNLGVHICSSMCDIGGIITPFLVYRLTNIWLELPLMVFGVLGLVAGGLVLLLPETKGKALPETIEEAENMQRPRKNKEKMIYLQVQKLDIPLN
Experiment: Inhibition of hOCT2-mediated 14C-metformin uptake in transfected HEK293 cells
Format: cell-based
Parameters: expressed in transfected cells; host or cells: HEK293 (stably transfected)
Details: HEK293, read-out: Inhibitory Effects (%) hOCT2 100 µM Mean
Answer no if inhibition at 100 µM is under -20%, and yes if it is -20% or more.

Reference set (3 entries):
compound=Cc1ccc(/N=C/N(C)/C=N/c2ccc(C)cc2C)c(C)c1 classification=no
compound=CCCN(CCOc1c(Cl)cc(Cl)cc1Cl)C(=O)n1ccnc1 classification=yes
compound=CCNc1nc(Cl)nc(NC(C)C)n1 classification=no

// query Tell me whether inhibition at 100 µM is at least -20% here: COc1ccc(CCN(C)CCCC(C#N)(c2ccc(OC)c(OC)c2)C(C)C)cc1OC (centres unmarked)
// result yes

// query Determine whether this compound has inhibition at 100 µM no lower than -20%: C[n+]1ccc(-c2cc[n+](C)cc2)cc1
// result no

###

target: hOCT2 (Homo sapiens); test: Inhibition of hOCT2-mediated 3H-MPP uptake in transfected HEK293 cells; format: cell-based; parameters: expressed in transfected cells; host or cells: HEK293 (stably transfected); details: read-out: IC50, hOCT2-mediated MPP uptake; control inhibitor; MPP at its Km; 0.1-100 µM inhibitor
measurement.label: IC50 (µM)
Give bare numbers, in µM.

// query Please give the documented IC50 of CCN1/C(=C/c2ccc3ccccc3[n+]2CC)C=Cc2ccccc21.[I-]
// result 16

###

molecular target: hOCT2 (Homo sapiens, UniProt O15244); test: Inhibition of hOCT2-mediated 14C-metformin uptake in transfected HEK293 cells; format: cell-based; parameters: expressed in transfected cells; host or cells: HEK293 (stably transfected); conditions: HEK293; read-out: Inhibitory Effects (%) hOCT2 10 µM Mean
measurement.label: inhibition at 10 µM (%)
Numbers only, in %.

Worked examples follow.
record_smiles=C=C[C@H]1C[N@@]2CC[C@H]1C[C@@H]2[C@@H](O)c1ccnc2ccc(OC)cc12 observed=-50
record_smiles=CCCOC(=O)NCCCN(C)C observed=1
record_smiles=CCN(CC)CCNC(=O)c1ccc(N)cc1 observed=-20

Here is the next item to consider.
// query Give me measured inhibition at 10 µM, please, for this compound: COc1cc2c(cc1OC)CN(CCc1ccc(NC(=O)c3cccc4c(=O)c5cccc(OC)c5[nH]c34)cc1)CC2
// result 25

###

target: hOCT2 (Homo sapiens); test: Inhibition of hOCT2-mediated 14C-metformin uptake in transfected HEK293 cells; assay type: cell-based; design: expressed in transfected cells; host or cells: HEK293 (stably transfected); conditions: HEK293; read-out: Inhibitory Effects (%) hOCT2 100 µM Mean
measurement.label: inhibition at 100 µM (%)
Give bare numbers, in %.

These solved cases illustrate the format of a correct answer.
compound="CCN(CC)CCNC(=O)c1ccc(N)cc1 [Procainamid]" units_of_measure=% observed=-44
compound="CCCOC(=O)NCCCN(C)C [Propamocarb]" units_of_measure=% observed=55
compound="COc1cc2c(cc1OC)CN(CCc1ccc(NC(=O)c3cccc4c(=O)c5cccc(OC)c5[nH]c34)cc1)CC2 [Elacridar]" units_of_measure=% observed=65

Here's the next entry for you.
// query Return reported inhibition at 100 µM. Input compound: C=C[C@H]1C[N@@]2CC[C@H]1C[C@@H]2[C@@H](O)c1ccnc2ccc(OC)cc12 [Quinidine]
// result -31

###

Record form. Attribute: inhibition at 100 µM. Fill in for each entry.
biological target: UniProtKB O15244; assay: Inhibition of hOCT2-mediated 14C-metformin uptake in transfected HEK293 cells; type: cell-based; design: expressed in transfected cells; host or cells: HEK293 (stably transfected); settings: HEK293, 100 µM test compound; 1 µM [14C]metformin, 2 min, HEK293; negative = stimulation; read-out: Inhibitory Effects (%) hOCT2 100 µM Mean
One number for each entry, in %.

compound="CCCCc1oc2ccccc2c1C(=O)c1cc(I)c(OCCN(CC)CC)c(I)c1 [Amiodarone]" system="UniProtKB O15244" observed=-27
compound="O[C@@H](COc1cccc2ncccc12)CN1CCN([C@@H]2c3ccccc3[C@@H]3[C@H](c4ccccc42)C3(F)F)CC1 [Zosuquidar]" system="UniProtKB O15244" observed=-47
compound="COC(=O)[C@H]1[C@H]2C[C@@H]3c4[nH]c5cc(OC)ccc5c4CCN3C[C@H]2C[C@@H](OC(=O)c2cc(OC)c(OC)c(OC)c2)[C@@H]1OC [Reserpine]" system="UniProtKB O15244" observed=-27
compound="CN/C(=N/CCSCc1nc[nH]c1C)NC#N [Cimetidine]" system="UniProtKB O15244" observed=-17
compound="CNC(=C[N+](=O)[O-])NCCSCc1ccc(CN(C)C)o1 [Ranitidine]" system="UniProtKB O15244" observed=-33
compound="CC(=O)N1CCN(c2ccc(OCC3COC(Cn4ccnc4)(c4ccc(Cl)cc4Cl)O3)cc2)CC1 (centres unmarked) [Ketoconazole]" system="UniProtKB O15244" observed=87
compound="Clc1cccc(Cl)c1N=C1NCCN1 [Clonidine]" system="UniProtKB O15244" observed=76

// query Using UniProtKB O15244 as the test system, report measured inhibition at 100 µM of CC(C)c1nc(CN(C)C(=O)N[C@H](C(=O)N[C@@H](Cc2ccccc2)C[C@H](O)[C@H](Cc2ccccc2)NC(=O)OCc2cncs2)C(C)C)cs1 [Ritonavir] .
// result -38

###

target: mOct2 (Mus musculus); test: Inhibition of mOct2-mediated 14C-metformin uptake in transfected HEK293 cells; assay type: cell-based; design: expressed in transfected cells; host or cells: HEK293 (stably transfected); conditions: HEK293, 10 µM test compound; 1 µM [14C]metformin, 2 min, HEK293; negative = stimulation; read-out: Inhibitory Effects (%) mOct2 10 µM Mean
Sequence (O70577 whole entry): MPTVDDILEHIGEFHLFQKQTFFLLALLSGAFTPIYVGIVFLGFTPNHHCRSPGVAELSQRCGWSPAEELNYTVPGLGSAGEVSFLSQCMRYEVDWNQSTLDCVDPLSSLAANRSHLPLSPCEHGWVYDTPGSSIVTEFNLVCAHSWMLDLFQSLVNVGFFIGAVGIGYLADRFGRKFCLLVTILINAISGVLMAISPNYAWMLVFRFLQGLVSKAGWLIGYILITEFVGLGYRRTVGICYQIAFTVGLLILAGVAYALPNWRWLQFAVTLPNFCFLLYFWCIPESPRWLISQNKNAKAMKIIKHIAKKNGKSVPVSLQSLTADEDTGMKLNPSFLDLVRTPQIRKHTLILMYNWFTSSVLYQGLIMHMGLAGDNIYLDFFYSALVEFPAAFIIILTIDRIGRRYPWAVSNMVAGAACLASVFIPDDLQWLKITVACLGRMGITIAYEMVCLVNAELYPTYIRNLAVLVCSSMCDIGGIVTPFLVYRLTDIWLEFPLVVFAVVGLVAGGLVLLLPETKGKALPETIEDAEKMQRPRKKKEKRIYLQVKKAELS
measurement.label: inhibition at 10 µM (%)
One number for each entry, in %.

Dear colleague, could you please provide inhibition at 10 µM for the molecules listed below?
1. O[C@@H](COc1cccc2ncccc12)CN1CCN([C@@H]2c3ccccc3[C@@H]3[C@H](c4ccccc42)C3(F)F)CC1 [Zosuquidar]
2. Clc1cccc(Cl)c1N=C1NCCN1 [Clonidine]
3. CN/C(=N/CCSCc1nc[nH]c1C)NC#N [Cimetidine]
4. C=C[C@H]1C[N@@]2CC[C@H]1C[C@@H]2[C@@H](O)c1ccnc2ccc(OC)cc12 [Quinidine]
5. CCCCc1oc2ccccc2c1C(=O)c1cc(I)c(OCCN(CC)CC)c(I)c1 [Amiodarone]

// result
1. -11
2. 46
3. -42
4. -38
5. -7

// query Annotate the molecule CCN(CC)CCNC(=O)c1ccc(N)cc1 [Procainamid] with its measured inhibition at 10 µM.
// result -16

###

target: mOct2 (Mus musculus); test: Inhibition of mOct2-mediated 14C-metformin uptake in transfected HEK293 cells; assay type: cell-based; parameters: expressed in transfected cells; host or cells: HEK293 (stably transfected); settings: HEK293; read-out: Inhibitory Effects (%) mOct2 10 µM Mean
Assign inhibition at 10 µM to each entry below.
Answers are plain numbers, in %.

molecule=CCCOC(=O)NCCCN(C)C measurement_label="inhibition at 10 µM" observed=-9
molecule=CC(C)c1nc(CN(C)C(=O)N[C@H](C(=O)N[C@@H](Cc2ccccc2)C[C@H](O)[C@H](Cc2ccccc2)NC(=O)OCc2cncs2)C(C)C)cs1 measurement_label="inhibition at 10 µM" observed=1
molecule="CC(=O)N1CCN(c2ccc(OCC3COC(Cn4ccnc4)(c4ccc(Cl)cc4Cl)O3)cc2)CC1 (stereo not drawn)" measurement_label="inhibition at 10 µM" observed=49
molecule=COC(=O)[C@H]1[C@H]2C[C@@H]3c4[nH]c5cc(OC)ccc5c4CCN3C[C@H]2C[C@@H](OC(=O)c2cc(OC)c(OC)c(OC)c2)[C@@H]1OC measurement_label="inhibition at 10 µM" observed=-27
molecule=CNC(=C[N+](=O)[O-])NCCSCc1ccc(CN(C)C)o1 measurement_label="inhibition at 10 µM" observed=-37

Please turn your attention to the following entry.
// query Read off the recorded inhibition at 10 µM for COc1cc2c(cc1OC)CN(CCc1ccc(NC(=O)c3cccc4c(=O)c5cccc(OC)c5[nH]c34)cc1)CC2
// result 56
